Reference source for all entries: PubChem BioAssay (NCATS)

target: Tyrosine-protein phosphatase non-receptor type substrate 1 (Homo sapiens) + Leukocyte surface antigen CD47 (Homo sapiens) (UniProt P78324+Q08722); experiment: CD47-SIRPalpha protein protein interaction - LANCE assay qHTS validation (AID 1347057); conditions: Recombinant CD47-His / biotin-SIRPalpha, TR-FRET ratio; series mostly up to 38.3 µM; also: 0% is about no effect
Sequence (P78324 whole entry, looked up): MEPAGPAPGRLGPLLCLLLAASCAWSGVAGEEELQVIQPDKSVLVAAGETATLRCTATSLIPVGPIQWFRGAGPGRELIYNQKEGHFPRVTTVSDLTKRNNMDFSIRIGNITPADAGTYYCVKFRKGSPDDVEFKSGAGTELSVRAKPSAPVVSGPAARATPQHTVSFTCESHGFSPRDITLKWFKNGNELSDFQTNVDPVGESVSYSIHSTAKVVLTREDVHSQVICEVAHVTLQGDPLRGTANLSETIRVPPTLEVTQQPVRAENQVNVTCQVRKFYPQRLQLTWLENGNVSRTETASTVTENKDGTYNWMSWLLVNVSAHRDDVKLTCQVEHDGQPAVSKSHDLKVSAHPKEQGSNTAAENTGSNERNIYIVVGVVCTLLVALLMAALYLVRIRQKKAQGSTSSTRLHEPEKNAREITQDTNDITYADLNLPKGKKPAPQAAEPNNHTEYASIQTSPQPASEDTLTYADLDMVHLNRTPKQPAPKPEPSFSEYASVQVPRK
Sequence (Q08722 whole entry, looked up): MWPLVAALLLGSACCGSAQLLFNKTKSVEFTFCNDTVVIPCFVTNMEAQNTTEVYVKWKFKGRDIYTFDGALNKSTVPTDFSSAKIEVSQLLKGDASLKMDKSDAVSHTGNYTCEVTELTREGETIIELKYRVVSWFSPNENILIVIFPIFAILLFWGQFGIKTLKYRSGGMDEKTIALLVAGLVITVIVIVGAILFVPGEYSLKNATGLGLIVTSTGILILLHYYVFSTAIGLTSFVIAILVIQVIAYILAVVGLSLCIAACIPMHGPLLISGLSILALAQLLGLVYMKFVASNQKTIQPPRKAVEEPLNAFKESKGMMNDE
Records with an inconclusive call do not appear. The source made the active and inactive calls. Calls follow the shape of the dose curve; as a rule, active = well fitted curve in the direction sought with a large enough effect in the signal ratio, with a control signal flat (not every such curve was filed as active); inconclusive = small, poorly fitted or top-dose-only effect, or effect the other way, or a change in a side signal; inactive = no such curve, though single readings can be large or run the other way; the % refers to the signal ratio.
recorded.metric: outcome

# count of solved cases: 4
Quick check: outcome of C=CCc1ccccc1OCC(O)CNC(C)C (configuration not stated) ?
inactive

Which value of outcome has been reported for O=C(O)CN(CCN(CC(=O)O)CC(=O)O)CCN(CC(=O)O)CC(=O)O in the records?
inactive

Look at this compound and give its reported outcome. CC(=O)OC(C)C[N+](C)(C)C (configuration not stated)
inactive

outcome lookup needed for CCCCNC(=O)NS(=O)(=O)c1ccc(C)cc1 , thanks.
inactive

***
Any idea what its outcome is? The compound is CC(C)COCC(CN(Cc1ccccc1)c1ccccc1)N1CCCC1 (configuration not stated)
inactive

Item NC/C=C/C(=O)O has what recorded outcome?
inactive

Consider the compound shown here: CCN1CCc2nc(N)oc2CC1 What is its recorded outcome?
inactive

Look up outcome for this compound: Cc1ccc(Cl)c(Nc2ccccc2C(=O)O)c1Cl
inactive

Need outcome of CCNC(=O)N1CCN(CCCC(c2ccc(F)cc2)c2ccc(F)cc2)CC1 , thanks.
inactive

Give its outcome value. Item: CN1CCN(CC(=O)N2c3ccccc3C(=O)Nc3cccnc32)CC1
inactive

Fill blank: measured outcome of the compound C[C@]12CC[C@@H]3c4ccc(O)cc4C[C@@H](CCCCCCCCCS(=O)CCCC(F)(F)C(F)(F)F)[C@H]3[C@@H]1CC[C@@H]2O (some centres not stated) is ____.
inactive

Which value of outcome has been reported for Cc1ccc(=O)n(-c2ccccc2)c1 in the records?
inactive

====

experiment: qHTS profiling for inhibitors of Plasmodium falciparum proliferation (AID 504749); also: nearly all actives have a fitted effect of over 60% in size;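 as to activity, negative = inhibition: 0% = DMSO vehicle and full inhibition = artemisinin control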; conditions: P. falciparum in erythrocytes, SYBR Green DNA, 72 h; at 28.7 µM (top of the series); parasite line B
Inconclusive results are not listed.
Attribute: activity, negative = inhibition
Numbers only here, please. The scale is %.

Sample records with activity, negative = inhibition:
// returns reported activity, negative = inhibition for input CCCCCN(CCCCC)C(=O)C(CCC(=O)O)NC(=O)c1ccc(Cl)c(Cl)c1 (centres undefined)
7.13

Recorded activity, negative = inhibition for CC(=O)OCC1=C(C(=O)O)N2C(=O)[C@@H](NC(=O)Cc3cccs3)[C@H]2SC1 , please?
13.1

Item under review: CN(C)CCN(Cc1cccs1)c1ccccn1 . Reported activity, negative = inhibition?
6.28

Continuing:
So what's the measured activity, negative = inhibition for this one? Nc1ncn([C@@H]2O[C@H](CO)[C@@H](O)[C@H]2O)c(=O)n1
6.7

Param item = Cc1cc(C)c(/C=C2\C(=O)Nc3ccccc32)[nH]1 ; retrieve measured activity, negative = inhibition.
10.1

What activity, negative = inhibition value was documented for this compound, O=C1CC2(CCCC2)CC(=O)N1CCCCN1CCN(c2ncccn2)CC1 ?
9.29

Value lookup for activity, negative = inhibition; key = CNCCC(Oc1ccccc1OC)c1ccccc1 (centres undefined)
-7.17

Quick one: activity, negative = inhibition of NC(Cc1ccc(Cl)cc1)C(=O)O (centres undefined) ?
7.34

Query: activity, negative = inhibition; subject: NS(=O)(=O)c1cc2c(cc1Cl)NC(C1CC3C=CC1C3)NS2(=O)=O (centres undefined)
-3.16

activity, negative = inhibition for FC(F)(F)c1ccccc1-n1ccnc1 ?
-3.4

Need activity, negative = inhibition, item Cc1ccc(Cl)c(Nc2ccccc2C(=O)O)c1Cl
-3.06

What value of activity, negative = inhibition has been reported for the following compound? O=C(CCNNC(=O)c1ccncc1)NCc1ccccc1
17

Would you mind telling me what activity, negative = inhibition value was observed for C[n+]1cc2c3c(ccc2c2ccc4cc5c(cc4c21)OCO5)OCO3 ?
-15.2

====

experiment: qHTS for differential inhibitors of proliferation of Plasmodium falciparum line 3D7 (AID 1876); also: potency is read from the fitted curve at half-maximal effect; conditions: P. falciparum 3D7 proliferation inhibition; series mostly up to 28.7 µM
Records with an inconclusive call do not appear. The source made the active and inactive calls. Calls come from the whole dose curve; as a rule, active = well fitted curve in the direction sought with a large enough effect; inconclusive = small, poorly fitted or top-dose-only effect, or another doubt; inactive = no such curve, though single readings can be large or run the other way.
recorded.metric: Potency

# count of solved cases: 6
Reported Potency for CCCCCN(CCCCC)C(=O)C(CCC(=O)O)NC(=O)c1ccc(Cl)c(Cl)c1 (configuration not stated) : what is it?
inactive

Consider the compound COc1cc2c(cc1OC)-c1cc(=Nc3c(C)cc(C)cc3C)n(C)c(=O)n1CC2 and give its measured Potency.
2 µM (active)

So what does the record say about Potency for Cc1ccc(=O)n(-c2ccccc2)c1 ?
inactive

What Potency value was documented for this compound, CCCNC(C)C(=O)Nc1ccccc1C (configuration not stated) ?
inactive

Which Potency reading was recorded for the compound CC1=NS(=O)(=O)c2cc(Cl)ccc2N1 ?
inactive

What value of Potency has been reported for the following compound? CCCC(C(=O)OCCN(CC)CC)(c1ccccc1)c1ccccc1
2.24 µM (active)

Okay, next one:
Quick one: Potency of C[C@H](CS)C(=O)N1CCC[C@H]1C(=O)O ?
inactive

====

test system: AA1029; assay: qHTS profiling for inhibitors of Plasmodium falciparum proliferation (AID 504749); also: nearly all actives have a fitted effect of over 60% in size; also: potency is read from the fitted curve at half-maximal effect; details: P. falciparum in erythrocytes, SYBR Green DNA, 72 h; series mostly up to 28.7 µM
Results filed as inconclusive are left out. Calls of active or inactive are those of the source. The call rests on the fitted dose curve; in most records, active means well fitted inhibition curve with a large enough effect; inconclusive means small, poorly fitted or top-dose-only effect; inactive means flat fitted curve, though single readings scatter.
recorded.metric: Potency

Take a look at these entries with their results.
AA1029 / Potency / NC(=O)N1c2ccccc2C=Cc2ccccc21 : value?
inactive

GET /values?readout=Potency&system=AA1029&item= Nc1c2c(nc3ccccc13)CCCC2O (centres undefined)
inactive

Please provide the recorded Potency for CC(C)NNC(=O)c1ccncc1 , tested on AA1029.
7.94 µM (active)

Item: CCN(Cc1ccncc1)C(=O)C(CO)c1ccccc1 (centres undefined) Test system: AA1029 Read-out: Potency Value: ?
inactive

# query: Potency | item Cc1ccc(=O)n(-c2ccccc2)c1 | system: AA1029
inactive

Next compound, Potency to be filled in.
Lab note: need Potency for CCCCNc1c(C(=O)OCC)c(C)nc2c1cnn2CC on AA1029, anyone have it?
inactive

====

Entries and their viability change values follow.
assay: Nrf2 qHTS screen for inhibitors: Validation (AID 493153); conditions: A549 ARE-Fluc reporter, 18-24 h; measured here: cytotoxicity max response
Results filed as inconclusive are left out.
Param answer (str): number followed by unit.

Give the measured viability change of OC(CCN1CCCCC1)(c1ccccc1)C1CCCCC1 (stereo unspecified) .
-0.392%

Quick one: viability change for C[C@]12CCC(=O)C=C1CC[C@@H]1[C@@H]2C(=O)C[C@@]2(C)[C@H]1CC[C@]2(O)C(=O)CO ?
8.98%

Which viability change is listed for Cc1nc2ccccn2c(=O)c1CCN1CCC(C(=O)c2ccc(F)cc2)CC1 ?
-13.1%

I'd like to know its viability change. The molecule in question is CCCCNC(=O)NS(=O)(=O)c1ccc(C)cc1
-5.96%

Field request: viability change | item: COc1cc(C(=O)OCCCN2CCCN(CCCOC(=O)c3cc(OC)c(OC)c(OC)c3)CC2)cc(OC)c1OC
-0.03%

# next molecule below
Please look up its viability change: NC/C=C/C(=O)O
-0.253%

====

test: qHTS for differential inhibitors of proliferation of Plasmodium falciparum line D10 (AID 1877); settings: series mostly up to 28.7 µM;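 also: parasites grown with compound for 72 h before DNA staining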
Inconclusive results are not listed. Calls of active or inactive are those of the source. The call rests on the fitted dose curve; in most records, active means well fitted curve in the direction sought with a large enough effect; inconclusive means small, poorly fitted or top-dose-only effect, or another doubt; inactive means no such curve, though single readings can be large or run the other way.
The reply should name one outcome from True (active), False (inactive)

Short answer needed: outcome of this test for CN(C)CCCN1c2ccccc2Sc2ccc(C(F)(F)F)cc21 ?
True

Continuing:
So what was the verdict on CCCN(CCC)CCc1cccc2c1CC(=O)N2 in this test?
False

Hi, sorry to bother you, what did the test record for Fc1ccc(C(c2ccc(F)cc2)N2CCN(C/C=C/c3ccccc3)CC2)cc1 ?
True

Please indicate how the test categorized NS(=O)(=O)c1cc2c(cc1Cl)NC(C1CC3C=CC1C3)NS2(=O)=O (stereo unspecified) .
False

What outcome does the record of this test show for CC(=O)Oc1cc(C(C)C)c(OCCN(C)C)cc1C ?
False

Lab log entry: Cc1nnc(SCC2=C(C(=O)O)N3C(=O)[C@@H](NC(=O)Cn4cnnn4)[C@H]3SC2)s1 — outcome as called in the assay?
False

====

assay: Cell Viability - LYMP2-012 (AID 982); conditions: LYMP2-012 lymphoblastoid cell viability qHTS; series mostly up to 92.2 µM;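 also: cellular ATP by luciferase luminescence where a drop means cytotoxicity; cells exposed to compound for one day before reading; nearly all actives have a fitted effect of over 55% in size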
Inconclusive results are not listed. The source made the active and inactive calls. The call rests on the fitted dose curve; in most records, active means well fitted cell-killing curve with a large enough effect; inconclusive means small, poorly fitted or top-dose-only effect; inactive means flat fitted curve, though single readings scatter.
Permitted responses: active, inactive

The examples below pair each entry with its known result.
Fill in: this test's call for COc1ccc(CN(CCN(C)C)c2ccccn2)cc1 is ___
inactive

Hey, what did the test say about Nc1nc(N)c2nc(-c3ccccc3)c(N)nc2n1 ?
inactive

Assay outcome for CN=C(NC#N)NCCSCc1nc[nH]c1C : what was it?
inactive

Others:
Query: recorded result category for CCCCNC(=O)NS(=O)(=O)c1ccc(C)cc1 in this test
inactive

Please state the recorded outcome for this compound: Nc1ncn([C@@H]2O[C@H](CO)[C@@H](O)[C@H]2O)c(=O)n1
active

Lab log entry: COc1cc(Cc2cnc(N)nc2N)cc(OC)c1OC — outcome as called in the assay?
inactive
